# Target System: CB1-receptor (Homo sapiens, UniProt P21554)
# Construct: expressed in transfected cells; host or cells: CHO cells, stably transfected with CB1 cDNA (from IMIBIC) and transiently with CRE-luc
# Sequence (P21554 whole entry): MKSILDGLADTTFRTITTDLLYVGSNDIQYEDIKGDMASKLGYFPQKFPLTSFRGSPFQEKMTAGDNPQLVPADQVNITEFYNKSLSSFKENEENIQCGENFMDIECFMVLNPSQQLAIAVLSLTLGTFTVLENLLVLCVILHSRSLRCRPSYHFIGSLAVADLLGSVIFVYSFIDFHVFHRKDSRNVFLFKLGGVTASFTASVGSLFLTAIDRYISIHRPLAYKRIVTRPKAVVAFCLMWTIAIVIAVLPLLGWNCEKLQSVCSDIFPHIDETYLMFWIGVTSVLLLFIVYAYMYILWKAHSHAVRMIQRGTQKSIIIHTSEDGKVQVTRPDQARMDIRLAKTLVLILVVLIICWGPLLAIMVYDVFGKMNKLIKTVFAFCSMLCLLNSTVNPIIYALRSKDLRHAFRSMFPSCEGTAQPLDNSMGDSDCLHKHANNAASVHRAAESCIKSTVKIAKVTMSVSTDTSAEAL
# Protocol: cAMP-dependent luciferase assay in CHO-CB1-CRE-luc cells
# Type: cell-based
# Protocol Conditions: CHO-CB1-CRE-luc, summary classification
Result Type: Effect on CB1

Supply measured Effect on CB1 of C=C(C)[C@@H]1CCC(C)=C[C@H]1c1c(O)cc(CCC)c(C(=O)OCCO)c1O [2-HECBDV (7), 2-hydroxyethyl cannabidivarinolate] in your reply.
Antagonist

Supply measured Effect on CB1 of C=C(C)[C@@H]1CCC(C)=C[C@H]1c1c(O)cc(CCCCC)c(C(=O)OCC(O)CCC)c1O (stereo partly drawn) [2-HPC (2), 2-hydroxypentyl cannabidiolate] in your reply.
Antagonist

Supply measured Effect on CB1 of C=C(C)[C@@H]1CCC(C)=C[C@H]1c1c(O)cc(CCCCC)c(C(=O)OCCO)c1O [2-HEC (1), 2-hydroxyethyl cannabidiolate] in your reply.
Antagonist

Supply measured Effect on CB1 of C=C(C)[C@@H]1CCC(C)=C[C@H]1c1c(O)cc(CCC)c(C(=O)OCCCCCC)c1O [HCBDV (9), n-hexyl cannabidivarinolate] in your reply.
Agonist

Supply measured Effect on CB1 of C=C(C)[C@@H]1CCC(C)=C[C@H]1c1c(O)cc(CCCCC)c(C(=O)OCCCCCC)c1O [HC (5), n-hexyl-cannabidiolate] in your reply.
Antagonist

Supply measured Effect on CB1 of C=C(C)[C@@H]1CCC(C)=C[C@H]1c1c(O)cc(CCCCC)c(C(=O)OCCNS(C)(=O)=O)c1O in your reply.
Antagonist

Supply measured Effect on CB1 of C=C(C)[C@@H]1CCC(C)=C[C@H]1c1c(O)cc(CCCCC)c(C(=O)OCC(O)CO)c1O (stereo partly drawn) [GCBD (3), 2,3-dihydroxypropyl cannabidiolate] in your reply.
Antagonist

Supply measured Effect on CB1 of C=C(C)[C@@H]1CCC(C)=C[C@H]1c1c(O)cc(CCCCC)c(C(=O)OC2CCCCC2)c1O [CHC (4), cyclohexyl cannabidiolate] in your reply.
Agonist

Please turn your attention to the following entry.
Supply measured Effect on CB1 of C=C(C)[C@@H]1CCC(C)=C[C@H]1c1c(O)cc(CCC)c(C(=O)OC2CCCCC2)c1O [CHCBDV (8), cyclohexyl cannabidivarinolate] in your reply.
Agonist
